Would you mind telling me the reported pIC50 of each entry?
# target or test system: RIP1 kinase (GST-RipK1 (1-375)) (Homo sapiens, UniProt Q13546)
# Sequence (Q13546 1-375): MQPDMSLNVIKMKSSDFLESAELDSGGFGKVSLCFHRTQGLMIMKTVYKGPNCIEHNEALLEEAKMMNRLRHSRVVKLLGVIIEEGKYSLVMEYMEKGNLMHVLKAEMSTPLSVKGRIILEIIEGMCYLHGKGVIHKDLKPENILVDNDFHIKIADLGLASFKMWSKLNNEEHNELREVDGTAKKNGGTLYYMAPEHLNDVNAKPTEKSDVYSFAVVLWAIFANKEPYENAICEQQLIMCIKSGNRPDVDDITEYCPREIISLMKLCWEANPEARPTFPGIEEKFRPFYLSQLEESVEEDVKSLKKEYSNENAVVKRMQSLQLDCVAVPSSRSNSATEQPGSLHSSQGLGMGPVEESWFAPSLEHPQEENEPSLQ
# study conditions: mean pIC50, FP competition binding, GST-RipK1 (1-375) 10 nM, fluorescent ligand 5 nM; mean of minimum 2 experiments
pIC50: −log10 of the molar value.

CN1C(=O)[C@@H](NC(=O)c2nnc(Cc3ccccc3)[nH]2)COc2cccc(F)c21 | ~7.60
Cc1cc(F)c2c(c1)OC[C@H](NC(=O)c1nnc(CC3CCCC3)[nH]1)C(=O)N2 | ~7.80
Cc1nnc(-c2ccc3c(c2)N(C)C(=O)[C@@H](NC(=O)c2nnc(Cc4ccccc4)[nH]2)CO3)o1 | ~7.20
O=C(N[C@H]1CCc2cc(Cl)ccc2NC1=O)c1nnc(Cc2ccccc2)[nH]1 | ~7.90

Here is another compound to look at.
[Q] Supply reported pIC50 belonging to this compound: O=C(N[C@H]1CCc2cc(Br)ccc2NC1=O)c1nnc(Cc2ccccc2)[nH]1
[A] ~7.90
